Reported selectivity ratio is given for each of the following compounds.
Assay: Therapeutic index, ratio of cytotoxicity against human MT4 cells to antiviral activity against HIV
Assay type: cell-based
Conditions: read-out: TI

{"Chemical string": "Cn1c(=O)c(C(=O)NCCN2CCOCC2)c(O)c2ncc(Cc3ccc(F)cc3)cc21", "Qualifier symbol": "=", "selectivity ratio": 165}
{"Chemical string": "O=C(NCCN1CCOCC1)c1c(O)c2ncc(Cc3ccc(F)cc3)cc2[nH]c1=O", "Qualifier symbol": ">", "selectivity ratio": 250}
{"Chemical string": "CN(CCNC(=O)c1c(O)c2ncc(Cc3ccc(F)cc3)cc2n(C)c1=O)S(C)(=O)=O", "Qualifier symbol": ">", "selectivity ratio": 7200}
{"Chemical string": "CC(=O)NCCNC(=O)c1c(O)c2ncc(Cc3ccc(F)cc3)cc2n(C)c1=O", "Qualifier symbol": "=", "selectivity ratio": 807}

----------
Test: Plasma clearance in dog at 1 mg/kg, iv and 5 mg/kg, po
Format: ADME, organism-based, Canis lupus familiaris

{"Chemical string": "CNC(=O)c1c(O)c2ncc(Cc3ccc(F)cc3)cc2n(C)c1=O", "clearance [mL/min/kg]": 8.6}

----------
Test: Half life in CD rat at 1 mg/kg, iv and 5 mg/kg, po
Format: ADME, organism-based
Details: in vivo

{"Chemical string": "COCCNC(=O)c1c(O)c2ncc(Cc3ccc(F)cc3)cc2n(C)c1=O", "half-life [min]": 240}

----------
pIC50: −log10 of the molar value.
Parameter 'readout' = pIC50; parameter 'system' = UniProt Q7ZJM1.
Sequence (Q7ZJM1 whole entry): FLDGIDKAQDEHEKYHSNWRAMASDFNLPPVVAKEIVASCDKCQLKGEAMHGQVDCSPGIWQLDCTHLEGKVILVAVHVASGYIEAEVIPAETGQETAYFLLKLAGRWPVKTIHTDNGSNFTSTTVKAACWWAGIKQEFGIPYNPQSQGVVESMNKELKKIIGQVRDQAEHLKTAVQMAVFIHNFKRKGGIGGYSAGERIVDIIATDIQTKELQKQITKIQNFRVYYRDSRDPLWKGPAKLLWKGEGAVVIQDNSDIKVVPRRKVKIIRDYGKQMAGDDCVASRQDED

{"Chemical string": "Cn1c(=O)c(C(=O)NCCCO)c(O)c2ncc(Cc3ccc(F)cc3)cc21", "pIC50": 8.30}
{"Chemical string": "CC(C)(CO)NC(=O)c1c(O)c2ncc(Cc3ccc(F)cc3)cc2[nH]c1=O", "pIC50": 8.52}
{"Chemical string": "CN1CCN(CCCNC(=O)c2c(O)c3ncc(Cc4ccc(F)cc4)cc3[nH]c2=O)CC1", "pIC50": 7.96}
{"Chemical string": "CC(C)OCCCNC(=O)c1c(O)c2ncc(Cc3ccc(F)cc3)cc2[nH]c1=O", "pIC50": 8.05}
{"Chemical string": "CC(C)CCNC(=O)c1c(O)c2ncc(Cc3ccc(F)cc3)cc2[nH]c1=O", "pIC50": 8.30}
{"Chemical string": "Cn1c(=O)c(C(=O)NCCCN2CCCC2)c(O)c2ncc(Cc3ccc(F)cc3)cc21", "pIC50": 8.22}
{"Chemical string": "C[C@@H](CO)NC(=O)c1c(O)c2ncc(Cc3ccc(F)cc3)cc2[nH]c1=O", "pIC50": 8.40}
{"Chemical string": "O=C(NC1CCS(=O)(=O)CC1)c1c(O)c2ncc(Cc3ccc(F)cc3)cc2[nH]c1=O", "pIC50": 8.05}
{"Chemical string": "COCCNC(=O)c1c(O)c2ncc(Cc3ccc(F)cc3)cc2n(C)c1=O", "pIC50": 8.40}
{"Chemical string": "Cn1c(=O)c(C(=O)NC2(CO)CCCC2)c(O)c2ncc(Cc3ccc(F)cc3)cc21", "pIC50": 8.15}
{"Chemical string": "O=C(NCCN1CCOCC1)c1c(O)c2ncc(Cc3ccc(F)cc3)cc2[nH]c1=O", "pIC50": 8.15}
{"Chemical string": "Cn1c(=O)c(C(=O)NCC(F)F)c(O)c2ncc(Cc3ccc(F)cc3)cc21", "pIC50": 8.30}
{"Chemical string": "Cn1c(=O)c(C(=O)NCCN2CCOCC2)c(O)c2ncc(Cc3ccc(F)cc3)cc21", "pIC50": 7.89}
{"Chemical string": "O=C(NCCCN1CCOCC1)c1c(O)c2ncc(Cc3ccc(F)cc3)cc2[nH]c1=O", "pIC50": 8.10}
{"Chemical string": "C[C@H](CO)NC(=O)c1c(O)c2ncc(Cc3ccc(F)cc3)cc2n(C)c1=O", "pIC50": 8.10}
{"Chemical string": "CCOCCNC(=O)c1c(O)c2ncc(Cc3ccc(F)cc3)cc2[nH]c1=O", "pIC50": 8.05}
{"Chemical string": "CNC(=O)c1c(O)c2ncc(Cc3ccc(F)cc3)cc2[nH]c1=O", "pIC50": 8.22}
{"Chemical string": "C[C@H](CO)CNC(=O)c1c(O)c2ncc(Cc3ccc(F)cc3)cc2n(C)c1=O", "pIC50": 8.40}
{"Chemical string": "C[C@H](CO)NC(=O)c1c(O)c2ncc(Cc3ccc(F)cc3)cc2[nH]c1=O", "pIC50": 8.30}
{"Chemical string": "C[C@@H](CO)NC(=O)c1c(O)c2ncc(Cc3ccc(F)cc3)cc2n(C)c1=O", "pIC50": 8.40}
{"Chemical string": "CNC(=O)c1c(O)c2ncc(Cc3ccc(F)cc3)cc2n(C)c1=O", "pIC50": 8.40}
{"Chemical string": "COCCNC(=O)c1c(O)c2ncc(Cc3ccc(F)cc3)cc2[nH]c1=O", "pIC50": 8.30}
{"Chemical string": "O=C(NCCO)c1c(O)c2ncc(Cc3ccc(F)cc3)cc2[nH]c1=O", "pIC50": 8.30}
{"Chemical string": "NC(=O)c1c(O)c2ncc(Cc3ccc(F)cc3)cc2[nH]c1=O", "pIC50": 7.35}
{"Chemical string": "CN(CCNC(=O)c1c(O)c2ncc(Cc3ccc(F)cc3)cc2[nH]c1=O)S(C)(=O)=O", "pIC50": 8.40}
{"Chemical string": "C[C@H](O)CNC(=O)c1c(O)c2ncc(Cc3ccc(F)cc3)cc2[nH]c1=O", "pIC50": 8.52}
{"Chemical string": "CC(=O)NCCNC(=O)c1c(O)c2ncc(Cc3ccc(F)cc3)cc2n(C)c1=O", "pIC50": 8.30}
{"Chemical string": "CN(CCNC(=O)c1c(O)c2ncc(Cc3ccc(F)cc3)cc2n(C)c1=O)S(C)(=O)=O", "pIC50": 8.30}
{"Chemical string": "O=C(NCCN1CCCCC1)c1c(O)c2ncc(Cc3ccc(F)cc3)cc2[nH]c1=O", "pIC50": 7.85}
{"Chemical string": "Cn1c(=O)c(C(=O)NC(C)(C)CO)c(O)c2ncc(Cc3ccc(F)cc3)cc21", "pIC50": 8.22}
{"Chemical string": "CC(C)(CO)CNC(=O)c1c(O)c2ncc(Cc3ccc(F)cc3)cc2[nH]c1=O", "pIC50": 8.40}
{"Chemical string": "C[C@H](O)CNC(=O)c1c(O)c2ncc(Cc3ccc(F)cc3)cc2n(C)c1=O", "pIC50": 8.70}
{"Chemical string": "O=C(NCCCN1CCCC1)c1c(O)c2ncc(Cc3ccc(F)cc3)cc2[nH]c1=O", "pIC50": 7.64}
{"Chemical string": "CSCCNC(=O)c1c(O)c2ncc(Cc3ccc(F)cc3)cc2[nH]c1=O", "pIC50": 8.30}
{"Chemical string": "Cn1c(=O)c(C(=O)NCCO)c(O)c2ncc(Cc3ccc(F)cc3)cc21", "pIC50": 8.10}
{"Chemical string": "Cn1c(=O)c(C(=O)NCCN2CCNC2=O)c(O)c2ncc(Cc3ccc(F)cc3)cc21", "pIC50": 8.30}
{"Chemical string": "O=C(NCCCN1CCCC1=O)c1c(O)c2ncc(Cc3ccc(F)cc3)cc2[nH]c1=O", "pIC50": 8.40}
{"Chemical string": "C[C@@H](O)CNC(=O)c1c(O)c2ncc(Cc3ccc(F)cc3)cc2[nH]c1=O", "pIC50": 8.22}
{"Chemical string": "CCNC(=O)c1c(O)c2ncc(Cc3ccc(F)cc3)cc2n(C)c1=O", "pIC50": 8.40}
{"Chemical string": "Cn1c(=O)c(C(=O)NCCCN2CCCC2=O)c(O)c2ncc(Cc3ccc(F)cc3)cc21", "pIC50": 7.80}
{"Chemical string": "O=C(NCCCO)c1c(O)c2ncc(Cc3ccc(F)cc3)cc2[nH]c1=O", "pIC50": 7.96}

Hello, the source for this data is ChEMBL document CHEMBL2311459, in case you need it.
